Tested on: 5637 cells
measurement-protocol: CCK-8 anti-proliferative assay, 5637
Type: cell-based, human
condition-parameters: Homo sapiens; Table 10; co-incubated 48 h; read-out: Anti-proliferative activity (IC50 ± standard deviation) 5637
measurement-label: pIC50
Keep in mind that pIC50 stands for -log10 of concentration in molar terms.

Illustrative cases are given below, each with its answer.
[
  {
    "compound": "COc1cc2ncnc(NCc3cccc(NC(=O)Nc4ccccc4Cl)c3)c2cc1OCCCCCCN1CCC(CN2CCN(c3ccccn3)CC2)CC1 [Compound 8-2o]",
    "pIC50": 4.91
  },
  {
    "compound": "COc1ccc(NC(=O)Nc2cccc(CNc3ncnc4cc(OC)c(OCCCCCCN5CCC(CN6CCN(c7ccccn7)CC6)CC5)cc34)c2)cc1 [Compound 8-2l]",
    "pIC50": 5.04
  },
  {
    "compound": "COc1cc2ncnc(NCc3cccc(NC(=O)Nc4ccc(F)c(C(F)(F)F)c4)c3)c2cc1OCCCCCCN1CCC(CN2CCN(c3ccccn3)CC2)CC1 [Compound 8-2u]",
    "pIC50": 4.88
  },
  {
    "compound": "COc1ccccc1NC(=O)Nc1cccc(CNc2ncnc3cc(OC)c(OCCCCCCN4CCC(CN5CCN(c6ccccn6)CC5)CC4)cc23)c1 [Compound 8-2k]",
    "pIC50": 5.25
  }
]

Item CCc1ccccc1NC(=O)Nc1cccc(CNc2ncnc3cc(OC)c(OCCCCCCN4CCC(CN5CCN(c6ccccn6)CC5)CC4)cc23)c1 [Compound 8-2g] with 5637 cells - pIC50? 5.22

Item COc1cc2ncnc(NCc3cccc(NC(=O)Nc4c(Cl)cc(Cl)cc4Cl)c3)c2cc1OCCCCCCN1CCC(CN2CCN(c3ccccn3)CC2)CC1 [Compound 8-2s] with 5637 cells - pIC50? 5.31

* * *

System: T24 cells
measurement-protocol: CCK-8 anti-proliferative assay, T24
Format: cell-based, human
condition-parameters: Homo sapiens, T-24; Table 16; comparative compounds 8-1 to 8-23; co-incubated 48 h; read-out: Anti-proliferative activity (IC50 ± standard deviation) T24
Could you mark each record 1 (yes) if its IC50 falls strictly under 20 µM, and 0 (no) if it equals or exceeds it?

Use these answered entries as a reference point.
[
  {
    "molecule": "COc1cc2ncnc(NCc3cccc(NC(=O)Nc4ccc(C)cc4)c3)c2cc1OCCCC(=O)N1CCC(N2CCOCC2)CC1 [Compound 8-3, reference compound]",
    "assigned-category": "0 (no)"
  },
  {
    "molecule": "COc1ccccc1NC(=O)Nc1cccc(CNc2ncnc3cc(OC)c(OCCCC(=O)N4CCC(N5CCOCC5)CC4)cc23)c1 [Compound 8-10, reference compound]",
    "assigned-category": "1 (yes)"
  }
]

Dear colleague, could you confirm whether IC50 of COc1cc2ncnc(NCc3cccc(NC(=O)Nc4ccc(C(C)C)cc4)c3)c2cc1OCCCC(=O)N1CCC(N2CCOCC2)CC1 [Compound 8-8, reference compound] falls below 20 µM? Thanks. 1 (yes)

Dear colleague, could you confirm whether IC50 of COc1cc2ncnc(NCc3cccc(NC(=O)Nc4ccc(Cl)cc4)c3)c2cc1OCCCC(=O)N1CCC(N2CCOCC2)CC1 [Compound 8-15, reference compound] falls below 20 µM? Thanks. 1 (yes)

Dear colleague, could you confirm whether IC50 of COc1cc2ncnc(NCc3cccc(NC(=O)Nc4ccccc4Cl)c3)c2cc1OCCCC(=O)N1CCC(N2CCOCC2)CC1 [Compound 8-14, reference compound] falls below 20 µM? Thanks. 0 (no)

Dear colleague, could you confirm whether IC50 of COc1cc2ncnc(NCc3cccc(NC(=O)NCc4ccccc4)c3)c2cc1OCCCC(=O)N1CCC(N2CCOCC2)CC1 [Compound 8-23, reference compound] falls below 20 µM? Thanks. 0 (no)

Dear colleague, could you confirm whether IC50 of COc1cc2ncnc(NCc3cccc(NC(=O)Nc4cc(C)cc(C)c4)c3)c2cc1OCCCC(=O)N1CCC(N2CCOCC2)CC1 [Compound 8-5, reference compound] falls below 20 µM? Thanks. 0 (no)

Dear colleague, could you confirm whether IC50 of COc1cc2ncnc(NCc3cccc(NC(=O)Nc4ccc(C(C)(C)C)cc4)c3)c2cc1OCCCC(=O)N1CCC(N2CCOCC2)CC1 [Compound 8-9, reference compound] falls below 20 µM? Thanks. 1 (yes)

Dear colleague, could you confirm whether IC50 of CCc1cccc(CC)c1NC(=O)Nc1cccc(CNc2ncnc3cc(OC)c(OCCCC(=O)N4CCC(N5CCOCC5)CC4)cc23)c1 [Compound 8-7, reference compound] falls below 20 µM? Thanks. 1 (yes)

Dear colleague, could you confirm whether IC50 of COc1cc2ncnc(NCc3cccc(NC(=O)Nc4ccc(F)c(C(F)(F)F)c4)c3)c2cc1OCCCC(=O)N1CCC(N2CCOCC2)CC1 [Compound 8-19, reference compound] falls below 20 µM? Thanks. 0 (no)

Dear colleague, could you confirm whether IC50 of COc1cc2ncnc(NCc3cccc(NC(=O)Nc4ccccc4)c3)c2cc1OCCCC(=O)N1CCC(N2CCOCC2)CC1 [Compound 8-1, reference compound] falls below 20 µM? Thanks. 1 (yes)
